Data credit: ChEMBL document CHEMBL5338748

TARGET_UNDER_TEST: Peptidyl-prolyl cis-trans isomerase FKBP5 (Homo sapiens, UniProt Q13451)
Sequence (Q13451 whole entry): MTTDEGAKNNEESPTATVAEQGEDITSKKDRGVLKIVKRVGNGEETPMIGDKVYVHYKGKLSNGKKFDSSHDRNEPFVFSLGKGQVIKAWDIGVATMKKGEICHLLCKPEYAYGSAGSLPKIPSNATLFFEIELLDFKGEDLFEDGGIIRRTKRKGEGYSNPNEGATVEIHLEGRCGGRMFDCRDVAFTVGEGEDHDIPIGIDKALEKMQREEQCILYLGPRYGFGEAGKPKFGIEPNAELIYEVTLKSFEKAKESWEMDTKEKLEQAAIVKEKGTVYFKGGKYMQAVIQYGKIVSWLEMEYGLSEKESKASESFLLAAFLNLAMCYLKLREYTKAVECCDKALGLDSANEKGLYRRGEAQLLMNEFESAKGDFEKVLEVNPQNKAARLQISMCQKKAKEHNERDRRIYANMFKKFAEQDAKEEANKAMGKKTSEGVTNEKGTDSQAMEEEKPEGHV
PROTOCOL_TEXT: Binding affinity to FKBP51 (unknown origin) assessed as inhibition constant by fluorescence polarization assay
ATTRIBUTE_MEASURED: pKi
Scale note: pKi = -log10(concentration in M).

Prompt line: Report pKi for COc1ccc(CC[C@@H](OC(=O)[C@@H]2CCCCN2C(=O)[C@H](c2cc(OC)c(OC)c(OC)c2)c2ccc(C3CC3)s2)c2cccc(OCC(=O)O)c2)cc1OC please.
Response line: 7.39

Prompt line: Report pKi for COc1ccc(CC[C@@H](OC(=O)[C@@H]2CCCCN2C(=O)[C@H](c2cc(OC)c(OC)c(OC)c2)c2ccc(C)s2)c2cccc(OCC(=O)O)c2)cc1OC please.
Response line: 8.15

Prompt line: Report pKi for C=CC[C@@H](C(=O)N1CCCC[C@H]1C(=O)O[C@H](CCc1ccc(OC)c(OC)c1)c1cccc(OCC(=O)O)c1)c1ccc(Cl)s1 please.
Response line: 6.65

====

Can you tell me pKi for the items I'm about to list?
TARGET_UNDER_TEST: Peptidyl-prolyl cis-trans isomerase FKBP4 (Homo sapiens, UniProt Q02790)
Sequence (Q02790 whole entry): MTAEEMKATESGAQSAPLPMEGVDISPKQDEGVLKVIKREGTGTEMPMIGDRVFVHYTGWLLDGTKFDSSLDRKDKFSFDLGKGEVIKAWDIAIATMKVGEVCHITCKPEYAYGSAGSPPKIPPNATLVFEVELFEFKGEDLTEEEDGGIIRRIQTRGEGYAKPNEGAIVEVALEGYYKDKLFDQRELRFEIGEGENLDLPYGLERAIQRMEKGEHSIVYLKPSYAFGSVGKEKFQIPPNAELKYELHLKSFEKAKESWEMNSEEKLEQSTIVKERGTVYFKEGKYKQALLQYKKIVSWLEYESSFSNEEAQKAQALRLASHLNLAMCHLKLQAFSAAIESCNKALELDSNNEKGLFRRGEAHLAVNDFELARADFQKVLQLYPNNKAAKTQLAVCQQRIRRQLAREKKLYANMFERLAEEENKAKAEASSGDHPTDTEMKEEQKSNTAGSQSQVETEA
Scale note: pKi = -log10(concentration in M).

Prompt line: Report pKi for COc1ccc(CC[C@@H](OC(=O)[C@@H]2CCCCN2C(=O)[C@H](c2cc(OC)c(OC)c(OC)c2)c2ccc(C)s2)c2cccc(OCC(=O)O)c2)cc1OC please.
Response line: 5.99

Prompt line: Report pKi for COc1ccc(CC[C@@H](OC(=O)[C@@H]2CCCCN2C(=O)[C@H](c2cc(OC)c(OC)c(OC)c2)c2ccc(C#N)s2)c2cccc(OCC(=O)O)c2)cc1OC please.
Response line: 5.56

Prompt line: Report pKi for COc1ccc(CCC(OC(=O)C2CCCCN2C(=O)[C@H](c2cc(OC)c(OC)c(OC)c2)c2ccc(C)s2)c2cccc(OCCN3CCOCC3)c2)cc1OC (single isomer, unassigned) please.
Response line: 6.11

Prompt line: Report pKi for COc1ccc(CCC(OC(=O)C2CCCCN2C(=O)[C@H](c2cc(OC)c(OC)c(OC)c2)c2ccc(Cl)s2)c2cccc(OCCN3CCOCC3)c2)cc1OC (single isomer, unassigned) please.
Response line: 6.11
